Values were extracted from ChEMBL document CHEMBL1143230.

Examples of compounds with documented Activity follow.
# tested-on: Adenosine receptor A1 (Homo sapiens) (UniProt P30542)
# method-description: Activity at human adenosine A1 receptor expressed in CHOK1 cells assessed as agonist-receptor ternary complex remaining by […] after 10 mins
# Assay type: functional, cell-based
# Design: concentration or dose not given beside the values
# conditions: CHO-K1
property-measured: Activity

entry-smiles: Nc1sc(-c2ccc([N+](=O)[O-])cc2)c(-c2cccc(C(F)(F)F)c2)c1C(=O)c1ccccc1
measurement: 23.7%
//
entry-smiles: CCOC(=O)c1c(N)sc(-c2ccc(C(C)=O)cc2)c1-c1cccc(C(F)(F)F)c1
measurement: 28.5%
//
entry-smiles: CCOC(=O)c1c(N)sc(-c2cccc(C(C)=O)c2)c1-c1cccc(C(F)(F)F)c1
measurement: 14.4%
//
entry-smiles: Nc1sc(Br)c(-c2cccc(C(F)(F)F)c2)c1C(=O)c1ccccc1
measurement: 53.5%

----------
# tested-on: Adenosine receptor A1 (Homo sapiens) (UniProt P30542)
# Sequence (whole entry): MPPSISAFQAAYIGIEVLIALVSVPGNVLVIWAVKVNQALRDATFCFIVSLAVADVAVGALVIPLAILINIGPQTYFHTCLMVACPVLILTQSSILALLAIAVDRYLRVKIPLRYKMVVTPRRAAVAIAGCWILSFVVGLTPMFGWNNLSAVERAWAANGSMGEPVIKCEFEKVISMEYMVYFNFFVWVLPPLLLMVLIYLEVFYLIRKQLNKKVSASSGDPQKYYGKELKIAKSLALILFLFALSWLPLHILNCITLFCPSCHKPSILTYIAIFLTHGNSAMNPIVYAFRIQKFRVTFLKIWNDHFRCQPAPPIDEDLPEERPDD
# method-description: Activity at human adenosine A1 receptor expressed in CHOK1 cells assessed as agonist-receptor ternary complex remaining by […] after 10 mins
# Assay type: functional, cell-based
# Design: concentration or dose not given beside the values
# conditions: CHO-K1
Examples of compounds with documented Activity follow.
property-measured: Activity (%)

entry-smiles: CC(=O)c1ccc(-c2sc(N)c(C(=O)c3ccccc3)c2-c2cccc(C(F)(F)F)c2)cc1
property-measured: Activity
measurement: 4.8

entry-smiles: CCOC(=O)c1c(N)sc(-c2ccccc2)c1-c1cccc(C(F)(F)F)c1
property-measured: Activity
measurement: 13.2

entry-smiles: Nc1sc(-c2ccccc2)c(-c2cccc(C(F)(F)F)c2)c1C(=O)c1ccccc1
property-measured: Activity
measurement: 18.1

entry-smiles: CCOC(=O)c1c(N)sc(-c2ccc(-c3ccncc3)cc2)c1-c1cccc(C(F)(F)F)c1
property-measured: Activity
measurement: 0

entry-smiles: Nc1sc(Cl)c(-c2cccc(C(F)(F)F)c2)c1C(=O)c1ccccc1
property-measured: Activity
measurement: 22.2

entry-smiles: CCOC(=O)c1c(N)sc(-c2ccc(OC)cc2)c1-c1cccc(C(F)(F)F)c1
property-measured: Activity
measurement: 17.5

entry-smiles: CCOC(=O)c1c(N)sc(-c2ccc(Cl)cc2)c1-c1cccc(C(F)(F)F)c1
property-measured: Activity
measurement: 57

entry-smiles: CCOC(=O)c1c(N)sc(-c2ccc(C(F)(F)F)cc2)c1-c1cccc(C(F)(F)F)c1
property-measured: Activity
measurement: 14.8

entry-smiles: COc1ccc(-c2sc(N)c(C(=O)c3ccccc3)c2-c2cccc(C(F)(F)F)c2)cc1
property-measured: Activity
measurement: 7.4
